# Test protocol: NCI Yeast Anticancer Drug Screen. Data for the cln2 rad14 strain (AID 165);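 also: 0% = growth equal to vehicle treated cultures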
# Condition: S. cerevisiae cln2 rad14 strain, at 50.0 µM, hits give high values
This is part of a sample that, as a whole, favours compounds with a hit. Of some 79,000 tested, about 15% had one in any assay.
Readout label: growth inhibition (%)
One number for each entry, in %.

Below, each entry is followed by its recorded growth inhibition result.
>>> meas_value("COC(=O)c1ccccc1NC(=O)C(=O)CC(=O)CC(c1ccccc1)c1c(O)c2ccccc2oc1=O (configuration not stated)")
11.3
>>> meas_value("CCOP(=O)(OCC)/C(C#N)=C/c1cn(C)cn1")
-16.1
>>> meas_value("ClC(OC(Cl)C(Cl)(Cl)Cl)C(Cl)(Cl)Cl (configuration not stated)")
20.9
>>> meas_value("CCOC(=O)C(=O)C1CCNC1=O (configuration not stated)")
-0.25
>>> meas_value("CC(C)(C)C(=O)CC(=O)C(C)(C)C.[Cl][Sb]1([Cl])[c]2ccccc2Cc2cccc[c]21")
-13.8

Go through the list and state growth inhibition for each entry.
1. C#CCC1(OC(N)=O)CCCCC1
2. Cc1ccc(S(=O)(=O)CC([Se]C#N)c2ccccc2)cc1 (configuration not stated)

A:
1. -38.2
2. -3.9
